study.system: Mammalian Cathepsin L (Homo sapiens, UniProt P07711)
Sequence (P07711 114-333): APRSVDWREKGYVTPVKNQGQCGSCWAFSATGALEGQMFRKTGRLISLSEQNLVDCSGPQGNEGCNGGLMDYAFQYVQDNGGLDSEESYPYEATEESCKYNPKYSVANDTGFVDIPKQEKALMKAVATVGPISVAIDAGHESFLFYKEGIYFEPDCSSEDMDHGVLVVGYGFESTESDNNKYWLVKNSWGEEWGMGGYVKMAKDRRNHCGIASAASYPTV
assay: Ki competitive inhibition, cathepsin L
Format: biochemical
test.conditions: Table 1, second line of each CAP-P2 block; read-out: Ki competitive inhibition measurements vs Mammalian Cathepsin L
Experimental: Data were saved as text files and imported into Excel. The initial rates were determined by linear regression and then fitted to the competitive inhibition equation using SigmaPlot. Assays were performed essentially as above. For cathepsin L, the buffer used was 100 mM sodium acetate, 1 mM EDTA, pH 5.5 and the substrate was D-Val-Leu-Lys-AMC with a highest concentration of 100 μM. […]
outcome.measure: Ki (nM)

compound	outcome.measure	measurement.unit	reported.result
CC(C)(C)CC(NC(=O)c1ccoc1)C(=O)NC1COCC1=O [CAP8-L-tBu-Ala/drawing 72]	Ki	nM	36400

[P] CC(C)C[C@H](NC(=O)c1ccc(O)cc1)C(=O)N[C@@H]1COCC1=O [CAP1-L-Leu/drawing 73]
[Q] C[C@H]1OCC(=O)[C@H]1NC(=O)[C@H](Cc1ccc(O)cc1)NC(=O)c1ccccc1 [CAP3-L-Tyr/drawing 69]
Smaller Ki value? Options are P and Q Your answer should be the label attached to the chosen record. Q
(Q: 170 nM, P: 390 nM)

###

study.system: Mammalian Cathepsin S (Homo sapiens, UniProt P25774)
Sequence (P25774 115-331): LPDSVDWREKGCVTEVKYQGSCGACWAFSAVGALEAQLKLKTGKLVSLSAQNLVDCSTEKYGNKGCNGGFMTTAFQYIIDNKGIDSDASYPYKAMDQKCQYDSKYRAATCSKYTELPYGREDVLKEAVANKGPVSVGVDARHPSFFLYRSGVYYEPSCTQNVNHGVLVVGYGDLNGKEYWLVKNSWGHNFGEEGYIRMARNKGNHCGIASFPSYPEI
assay: Ki competitive inhibition, mammalian cathepsin S
Type: biochemical
test.conditions: Table 1, first line of each CAP-P2 block; read-out: Ki competitive inhibition measurements vs Mammalian Cathepsin S
pKi: −log10 of the molar value.
outcome.measure: pKi

[I] CC(C)C[C@H](NC(=O)c1cccs1)C(=O)N[C@@H]1C(=O)CO[C@@H]1C [CAP5-L-Leu/drawing 69]
[II] CCCC[C@H](NC(=O)c1ccccc1)C(=O)N[C@H]1COCC1=O [CAP3-L-Nle/drawing 72]
Look at I and II . Which one has the lower recorded pKi number? Indicate your choice by writing its label. II
(II: 6.12, I: 6.32)

[a] CCCC[C@H](NC(=O)c1ccc(O)cc1)C(=O)N[C@H]1COCC1=O [CAP1-L-Nle/drawing 72]
[b] C[C@H]1OCC(=O)[C@H]1NC(=O)[C@H](Cc1ccc(O)cc1)NC(=O)c1ccccc1 [CAP3-L-Tyr/drawing 69]
# returns the entry with the larger pKi; inputs a and b # respond with the chosen item's label a
(a: 6.25, b: 5.96)

###

study.system: UniProt P25774
assay: Ki competitive inhibition, mammalian cathepsin S
Format: biochemical
test.conditions: Table 1, first line of each CAP-P2 block; read-out: Ki competitive inhibition measurements vs Mammalian Cathepsin S
outcome.measure: Ki (nM)

[I] CC(C)CC[C@H](NC(=O)c1ccc(O)cc1)C(=O)N[C@H]1C(=O)CO[C@H]1C [CAP1-L-hLeu/drawing 70]
[II] CCn1nc(C)cc1C(=O)N[C@@H](CC(C)C)C(=O)N[C@@H]1C(=O)CO[C@@H]1C [CAP10-L-Leu/drawing 69]
[III] CC(C)C[C@H](NC(=O)c1ccc(N(C)C)cc1)C(=O)N[C@H]1COCC1=O [CAP7-L-Leu/drawing 72]
[IV] CC(C)CC[C@H](NC(=O)N1CCOCC1)C(=O)N[C@@H]1C(=O)CO[C@H]1C [CAP9-L-hLeu/drawing 71]
Lab note: order the above by reported Ki, lowest first, highest last. Please list the labels in the order you were asked to rank them. I, IV, II, III
(I: 300 nM, IV: 520 nM, II: 1300 nM, III: 3100 nM)
